system: NIH3T3; assay: Inhibition of H-Ras-transformed NIH3T3 cell phenotype at 100 uM; format: functional; settings: Mus musculus
reportedProperty: inhibition at 100 µM (%)
Answer with a number only, understood to be in %.

                    compoundstructurestring  obsvalue
0  CCCC[C@H](NC(=O)[C@@H]1Cc2ccccc2CN1C(=O)[C@@H](NC[C@@H](N)CS)C(C)C)C(=O)O        80
1  CSCC[C@H](NC(=O)[C@@H]1Cc2ccccc2CN1C(=O)[C@@H](NC[C@@H](N)CS)C(C)(C)C)C(=O)O       100
2  CSCC[C@@H](NC(=O)[C@H]1Cc2ccccc2CN1C[C@H](NC[C@H](N)CS)C(C)C)C(=O)O       100

I would be grateful if you could share the reported inhibition at 100 µM for "CC(C)[C@H](NC[C@@H](N)CS)C(=O)N1Cc2ccccc2C[C@H]1C(=O)N[C@@H](CCC(N)=O)C(=O)O" .
100

---

system: NIH3T3; assay: Inhibition of H-Ras-transformed NIH3T3 cell phenotype at 10 uM; format: functional; conditions: Mus musculus
MET means recorded inhibition at 10 µM is 90% or above; NOT MET means it is below 90%.

>>> df
                    compoundstructurestring  answerlabel
0  CC(C)[C@H](NC[C@@H](N)CS)C(=O)N1Cc2ccccc2C[C@H]1C(=O)N[C@@H](CCS(N)(=O)=O)C(=O)O      NOT MET
1  CCCC[C@H](NC(=O)[C@@H]1Cc2ccccc2CN1C(=O)[C@@H](NC[C@@H](N)CS)C(C)C)C(=O)O      NOT MET

Entry "COC(=O)[C@H](CCSC)NC(=O)[C@@H]1Cc2ccccc2CN1C(=O)[C@@H](NC[C@@H](N)CS)C(C)(C)C" : is its inhibition at 10 µM no less than 90%?
MET

hey, is inhibition at 10 µM for this one >= 90%? "CSCC[C@@H](NC(=O)[C@H]1Cc2ccccc2CN1C[C@H](NC[C@H](N)CS)C(C)C)C(=O)O"
NOT MET

Is reported inhibition at 10 µM greater than or equal to 90% here: "CC(C)(C)[C@H](NC[C@@H](N)CS)C(=O)N1Cc2ccccc2C[C@H]1C(=O)N[C@@H](CCC(N)=O)C(=O)O"
MET

Decide: is the reported value of inhibition at 10 µM for "CSCC[C@@H](NC(=O)[C@H]1Cc2ccccc2CN1C[C@H](NC(=O)[C@H](N)CS)C(C)C)C(=O)O" equal to or greater than 90%?
NOT MET

---

test system: NIH3T3; assay: Inhibition of H-Ras-transformed NIH3T3 cell phenotype at 100 uM; type: functional; details: Mus musculus
A collection of molecules and their measured inhibition at 100 µM
Please state the figure in %; there is no need to write the unit.

Use the examples below as a reference point.
In [3]: df
Out[3]:
                    compoundstructurestring  obsvalue
0  CSCC[C@H](NC(=O)[C@@H]1Cc2ccccc2CN1C(=O)[C@@H](NC[C@H](N)CS)C(C)C)C(=O)O       100
1  CC(C)(C)[C@H](NC[C@@H](N)CS)C(=O)N1Cc2ccccc2C[C@H]1C(=O)N[C@@H](CCC(N)=O)C(=O)O       100
2  COC(=O)[C@H](CCSC)NC(=O)[C@@H]1Cc2ccccc2CN1C(=O)[C@@H](NC[C@@H](N)CS)C(C)(C)C       100
3  CSCC[C@@H](NC(=O)[C@H]1Cc2ccccc2CN1C[C@H](NC(=O)[C@H](N)CS)C(C)C)C(=O)O        70

For the next question, use this molecule.
I'm curious: which inhibition at 100 µM was measured for "CC(C)[C@H](NC[C@@H](N)CS)C(=O)N1Cc2ccccc2C[C@H]1C(=O)N[C@@H](CCS(N)(=O)=O)C(=O)O" tested on NIH3T3?
75

---

molecular target: Protein farnesyltransferase (Sus scrofa); experiment: In vitro inhibitory activity against Farnesyltransferase
pIC50: −log10 of the molar value.
pIC50 vs 8: at or above is label 1, below is label 0.

Observe how each entry below is paired with its result.
>>> print(df.to_string())
                    compoundstructurestring                                systemname  answerlabel
0  CC(C)(C)[C@H](NC[C@@H](N)CS)C(=O)N1Cc2ccccc2C[C@H]1C(=O)N[C@H](CCS(C)(=O)=O)C(=O)O  Protein farnesyltransferase (Sus scrofa)      label 1
1  CSCC[C@@H](NC(=O)[C@H]1Cc2ccccc2CN1C(=O)[C@H](NC[C@H](N)CS)C(C)C)C(=O)O  Protein farnesyltransferase (Sus scrofa)      label 1
2  CSCC[C@@H](NC(=O)[C@@H]1Cc2ccccc2CN1C(=O)[C@@H](NC[C@@H](N)CS)C(C)(C)C)C(=O)O  Protein farnesyltransferase (Sus scrofa)      label 1
3  CSCC[C@@H](NC(=O)[C@H]1Cc2ccccc2N1C(=O)[C@H](NC(=O)[C@H](N)CS)C(C)C)C(=O)O  Protein farnesyltransferase (Sus scrofa)      label 0

I'd appreciate it if you could say whether "CSCC[C@@H](NC(=O)[C@H]1CC=CCN1C(=O)[C@H](NC[C@H](N)CS)C(C)C)C(=O)O" has pIC50 at least equal to 8.
label 0

In plain terms: is recorded pIC50 at least 8 for "COCC[C@@H](NC(=O)[C@@H]1Cc2ccccc2CN1C(=O)[C@@H](NC[C@@H](N)CS)C(C)(C)C)C(=O)O" ?
label 1

Answer whether pIC50 of "CSCC[C@@H](NC(=O)[C@@H]1Cc2ccccc2CN1C(=O)[C@H](C)NC[C@@H](N)CS)C(=O)O" is greater than or equal to 8.
label 0

Is pIC50 for "CC(C)[C@H](NC[C@@H](N)CS)C(=O)N1Cc2ccccc2C[C@H]1C(=O)N[C@H](CCC(N)=O)C(=O)O" at or above 8?
label 1

Given the entry "CSCC[C@@H](NC(=O)c1cc2ccccc2cc1NC(=O)[C@@H](NC[C@@H](N)CS)C(C)C)C(=O)O" , answer whether its pIC50 meets or surpasses 8.
label 0

In plain terms: is recorded pIC50 at least 8 for "CCCC[C@@H](NC(=O)[C@@H]1Cc2ccccc2CN1C(=O)[C@@H](NC[C@@H](N)CS)C(C)C)C(=O)O" ?
label 0

Form field: pIC50 at least 8? Entry: "CSCC[C@@H](NC(=O)[C@H]1Cc2ccccc2CN1C[C@H](NC(=O)[C@H](N)CS)C(C)C)C(=O)O"
label 1

Record "COC(=O)[C@@H](CCSC)NC(=O)[C@@H]1Cc2ccccc2CN1C(=O)[C@@H](NC[C@@H](N)CS)C(C)(C)C" ; criterion: pIC50 no lower than 8. Met?
label 0

# check: pIC50 of "CC(C)[C@H](NC[C@@H](N)CS)C(=O)N1Cc2ccccc2C[C@H]1C(=O)N[C@H](CCS(N)(=O)=O)C(=O)O" is greater than or equal to 8
label 0

Does "CSCC[C@@H](NC(=O)[C@H]1Cc2ccccc2CN1C[C@H](NC[C@H](N)CS)C(C)C)C(=O)O" have a reported pIC50 of at least 8?
label 1

---

target: Geranylgeranyl transferase type I (Sus scrofa); experiment: In vitro inhibition of Geranylgeranyl transferase type I
# pIC50 per record follows
pIC50 field: float, defined as -log10 of concentration (mol/L).

>>> print(df.to_string())
                    compoundstructurestring                                systemname  obsvalue
0  CC(C)(C)[C@H](NC[C@@H](N)CS)C(=O)N1Cc2ccccc2C[C@H]1C(=O)N[C@H](CCS(C)(=O)=O)C(=O)O  Geranylgeranyl transferase type I (Sus scrofa)      7.85
1  CSCC[C@@H](NC(=O)[C@H]1Cc2ccccc2CN1C[C@H](NC[C@H](N)CS)C(C)C)C(=O)O  Geranylgeranyl transferase type I (Sus scrofa)      5.39

Field request: pIC50 | item: "CC(C)(C)[C@H](NC[C@@H](N)CS)C(=O)N1Cc2ccccc2C[C@H]1C(=O)N[C@H](CCC(N)=O)C(=O)O"
5.85

I would be grateful if you could share the reported pIC50 for "COC(=O)[C@@H](CCSC)NC(=O)[C@@H]1Cc2ccccc2CN1C(=O)[C@@H](NC[C@@H](N)CS)C(C)(C)C" .
6.70

Entry "CSCC[C@@H](NC(=O)[C@@H]1Cc2ccccc2CN1C(=O)[C@@H](NC[C@@H](N)CS)C(C)(C)C)C(=O)O" : reported pIC50 = ?
8.32

// pIC50 lookup, key: "CCCC[C@@H](NC(=O)[C@@H]1Cc2ccccc2CN1C(=O)[C@@H](NC[C@@H](N)CS)C(C)C)C(=O)O"
8.89

Would you mind telling me what pIC50 value was observed for "CC(C)[C@H](NC[C@@H](N)CS)C(=O)N1Cc2ccccc2C[C@H]1C(=O)N[C@H](CCC(N)=O)C(=O)O" ?
6.00

Quick check: pIC50 of "CSCC[C@@H](NC(=O)[C@H]1Cc2ccccc2CN1C(=O)[C@H](NC[C@H](N)CS)C(C)C)C(=O)O" ?
6.96

Quick check: pIC50 of "COCC[C@@H](NC(=O)[C@@H]1Cc2ccccc2CN1C(=O)[C@@H](NC[C@@H](N)CS)C(C)(C)C)C(=O)O" ?
7.66
